system: PANC-1; test: Phototoxicity (PDT), MTT assay, PANC-1; assay type: cell-based; conditions: 6.25 μM photosensitizer, 3 h, 50 mW 0.09 J/cm^2 laser 100 sec, 72 h incubation
# reported Cell viability, Phototoxicity against PANC-1; entries follow
Observation type: Cell viability, Phototoxicity against PANC-1 (%)

Molecule | Unit text | Value reported
C=Cc1c(C)c2cc3nc(c(CC(=O)O)c4[nH]c(cc5nc(cc1[nH]2)C(C)=C5CC)c(C)c4C(=O)O)[C@@H](CCC(=O)O)[C@@H]3C | % | 82.85
C=Cc1c(C)c2cc3nc(c(CC(=O)OC)c4[nH]c(cc5nc(cc1[nH]2)C(C)=C5CC)c(C)c4C(=O)NCCCNC(=O)CCCC(=O)Oc1ccc(/C=C/C(=O)CC(=O)/C=C/c2ccc(O)c(OC)c2)cc1OC)C(CCC(=O)OC)C3C (centres unmarked) [Compound 7, Chlorine e6-curcumin Conjugate (7)] | % | 31.56
C=Cc1c(C)c2cc3nc(c(CC(=O)OC)c4[nH]c(cc5nc(cc1[nH]2)C(C)=C5CC)c(C)c4C(=O)NCCOCCOCCNC(=O)CCCC(=O)Oc1ccc(/C=C/C(=O)CC(=O)/C=C/c2ccc(O)c(OC)c2)cc1OC)C(CCC(=O)OC)C3C (centres unmarked) [Compound 13, Chlorine e6-curcumin Conjugate (13)] | % | 7.71
C=Cc1c(C)c2cc3nc(c(CC(=O)OC)c4[nH]c(cc5nc(cc1[nH]2)C(C)=C5CC)c(C)c4C(=O)NCCCCCCNC(=O)CCCC(=O)Oc1ccc(/C=C/C(=O)CC(=O)/C=C/c2ccc(O)c(OC)c2)cc1OC)C(CCC(=O)OC)C3C (centres unmarked) [Compound 10, Chlorine e6-curcumin Conjugate (10)] | % | 96.76
C=Cc1c(C)c2cc3nc(c(CC(=O)OC)c4[nH]c(cc5nc(cc1[nH]2)C(C)=C5CC)c(C)c4C(=O)NCCCOCCOCCOCCCNC(=O)CCCC(=O)Oc1ccc(/C=C/C(=O)CC(=O)/C=C/c2ccc(O)c(OC)c2)cc1OC)[C@@H](CCC(=O)OC)[C@@H]3C [Compound 16, Chlorine e6-curcumin Conjugate (16)] | % | 89.19

* * *

test: Dark cytotoxicity, MTT assay, MIA-PaCa-2; type: cell-based; settings: human, MIA-PaCa-2 cells; 3.12 μM photosensitizer, 3 h, no light, 72 h incubation; read-out: Cell viability, Dark cytotoxicity against MIA-PaCa-2

Compound | Unit text | viability at 3.12 μM
C=Cc1c(C)c2cc3nc(c(CC(=O)OC)c4[nH]c(cc5nc(cc1[nH]2)C(C)=C5CC)c(C)c4C(=O)NCCCOCCOCCOCCCNC(=O)CCCC(=O)Oc1ccc(/C=C/C(=O)CC(=O)/C=C/c2ccc(O)c(OC)c2)cc1OC)[C@@H](CCC(=O)OC)[C@@H]3C [Compound 16, Chlorine e6-curcumin Conjugate (16)] | % | 122
C=Cc1c(C)c2cc3nc(c(CC(=O)OC)c4[nH]c(cc5nc(cc1[nH]2)C(C)=C5CC)c(C)c4C(=O)NCCCCCCNC(=O)CCCC(=O)Oc1ccc(/C=C/C(=O)CC(=O)/C=C/c2ccc(O)c(OC)c2)cc1OC)C(CCC(=O)OC)C3C (stereo not shown) [Compound 10, Chlorine e6-curcumin Conjugate (10)] | % | 89.7
C=Cc1c(C)c2cc3nc(c(CC(=O)OC)c4[nH]c(cc5nc(cc1[nH]2)C(C)=C5CC)c(C)c4C(=O)NCCOCCOCCNC(=O)CCCC(=O)Oc1ccc(/C=C/C(=O)CC(=O)/C=C/c2ccc(O)c(OC)c2)cc1OC)C(CCC(=O)OC)C3C (stereo not shown) [Compound 13, Chlorine e6-curcumin Conjugate (13)] | % | 114
C=Cc1c(C)c2cc3nc(c(CC(=O)O)c4[nH]c(cc5nc(cc1[nH]2)C(C)=C5CC)c(C)c4C(=O)O)[C@@H](CCC(=O)O)[C@@H]3C | % | 98.8

* * *

System: MIA-PaCa-2
Test: Phototoxicity (PDT), MTT assay, MIA-PaCa-2
Format: cell-based
Conditions: 6.25 μM photosensitizer, 3 h, 50 mW 0.09 J/cm^2 laser 100 sec, 72 h incubation
Protocol: Phototoxicity: The culture of AsPC-1 pancreatic cancer cells were grown in RPMI-1640 medium (life technologies corporation, USA) supplemented with 10% heat-inactivated fetal bovine serum (life technologies corporation, USA) and 1% penicillin (life technologies corporation, USA), whereas MIA-paca2 and PANC-1 cells were grown in DMEM. […] The cell viability was calculated using the following formula: Cell viability (%)=Mean optical density of treated wells/Mean optical density of control wells×100.
# reported Cell viability, Phototoxicity against MIA-PaCa-2; entries follow
Observation type: Cell viability, Phototoxicity against MIA-PaCa-2 (%)

Compound | Experimental target | Unit text | Value reported
C=Cc1c(C)c2cc3nc(c(CC(=O)OC)c4[nH]c(cc5nc(cc1[nH]2)C(C)=C5CC)c(C)c4C(=O)NCCCOCCOCCOCCCNC(=O)CCCC(=O)Oc1ccc(/C=C/C(=O)CC(=O)/C=C/c2ccc(O)c(OC)c2)cc1OC)[C@@H](CCC(=O)OC)[C@@H]3C [Compound 16, Chlorine e6-curcumin Conjugate (16)] | MIA-PaCa-2 | % | 17.62
C=Cc1c(C)c2cc3nc(c(CC(=O)OC)c4[nH]c(cc5nc(cc1[nH]2)C(C)=C5CC)c(C)c4C(=O)NCCCNC(=O)CCCC(=O)Oc1ccc(/C=C/C(=O)CC(=O)/C=C/c2ccc(O)c(OC)c2)cc1OC)C(CCC(=O)OC)C3C (stereo not shown) [Compound 7, Chlorine e6-curcumin Conjugate (7)] | MIA-PaCa-2 | % | 12.35
C=Cc1c(C)c2cc3nc(c(CC(=O)OC)c4[nH]c(cc5nc(cc1[nH]2)C(C)=C5CC)c(C)c4C(=O)NCCOCCOCCNC(=O)CCCC(=O)Oc1ccc(/C=C/C(=O)CC(=O)/C=C/c2ccc(O)c(OC)c2)cc1OC)C(CCC(=O)OC)C3C (stereo not shown) [Compound 13, Chlorine e6-curcumin Conjugate (13)] | MIA-PaCa-2 | % | 5.07
C=Cc1c(C)c2cc3nc(c(CC(=O)OC)c4[nH]c(cc5nc(cc1[nH]2)C(C)=C5CC)c(C)c4C(=O)NCCCCCCNC(=O)CCCC(=O)Oc1ccc(/C=C/C(=O)CC(=O)/C=C/c2ccc(O)c(OC)c2)cc1OC)C(CCC(=O)OC)C3C (stereo not shown) [Compound 10, Chlorine e6-curcumin Conjugate (10)] | MIA-PaCa-2 | % | 90.03

* * *

system: PANC-1; experiment: Phototoxicity (PDT), MTT assay, PANC-1; format: cell-based; settings: 12.5 μM photosensitizer, 3 h, 50 mW 0.09 J/cm^2 laser 100 sec, 72 h incubation
Observation type: Cell viability, Phototoxicity against PANC-1 (%)

Molecule | Unit text | Value reported
C=Cc1c(C)c2cc3nc(c(CC(=O)OC)c4[nH]c(cc5nc(cc1[nH]2)C(C)=C5CC)c(C)c4C(=O)NCCOCCOCCNC(=O)CCCC(=O)Oc1ccc(/C=C/C(=O)CC(=O)/C=C/c2ccc(O)c(OC)c2)cc1OC)C(CCC(=O)OC)C3C (stereo not drawn) [Compound 13, Chlorine e6-curcumin Conjugate (13)] | % | 7.53
C=Cc1c(C)c2cc3nc(c(CC(=O)OC)c4[nH]c(cc5nc(cc1[nH]2)C(C)=C5CC)c(C)c4C(=O)NCCCCCCNC(=O)CCCC(=O)Oc1ccc(/C=C/C(=O)CC(=O)/C=C/c2ccc(O)c(OC)c2)cc1OC)C(CCC(=O)OC)C3C (stereo not drawn) [Compound 10, Chlorine e6-curcumin Conjugate (10)] | % | 81.89
C=Cc1c(C)c2cc3nc(c(CC(=O)O)c4[nH]c(cc5nc(cc1[nH]2)C(C)=C5CC)c(C)c4C(=O)O)[C@@H](CCC(=O)O)[C@@H]3C [Compound 3, Chlorin e6] | % | 30.03

* * *

tested on: MIA-PaCa-2; assay: Phototoxicity (PDT), MTT assay, MIA-PaCa-2; format: cell-based; settings: 3.12 μM photosensitizer, 3 h, 50 mW 0.09 J/cm^2 laser 100 sec, 72 h incubation
Observation type: Cell viability, Phototoxicity against MIA-PaCa-2 (%)

Compound | Unit text | Value reported
C=Cc1c(C)c2cc3nc(c(CC(=O)OC)c4[nH]c(cc5nc(cc1[nH]2)C(C)=C5CC)c(C)c4C(=O)NCCCOCCOCCOCCCNC(=O)CCCC(=O)Oc1ccc(/C=C/C(=O)CC(=O)/C=C/c2ccc(O)c(OC)c2)cc1OC)[C@@H](CCC(=O)OC)[C@@H]3C [Compound 16, Chlorine e6-curcumin Conjugate (16)] | % | 80.67
C=Cc1c(C)c2cc3nc(c(CC(=O)OC)c4[nH]c(cc5nc(cc1[nH]2)C(C)=C5CC)c(C)c4C(=O)NCCOCCOCCNC(=O)CCCC(=O)Oc1ccc(/C=C/C(=O)CC(=O)/C=C/c2ccc(O)c(OC)c2)cc1OC)C(CCC(=O)OC)C3C (stereo not shown) [Compound 13, Chlorine e6-curcumin Conjugate (13)] | % | 4.68
C=Cc1c(C)c2cc3nc(c(CC(=O)OC)c4[nH]c(cc5nc(cc1[nH]2)C(C)=C5CC)c(C)c4C(=O)NCCCNC(=O)CCCC(=O)Oc1ccc(/C=C/C(=O)CC(=O)/C=C/c2ccc(O)c(OC)c2)cc1OC)C(CCC(=O)OC)C3C (stereo not shown) [Compound 7, Chlorine e6-curcumin Conjugate (7)] | % | 69.70
C=Cc1c(C)c2cc3nc(c(CC(=O)OC)c4[nH]c(cc5nc(cc1[nH]2)C(C)=C5CC)c(C)c4C(=O)NCCCCCCNC(=O)CCCC(=O)Oc1ccc(/C=C/C(=O)CC(=O)/C=C/c2ccc(O)c(OC)c2)cc1OC)C(CCC(=O)OC)C3C (stereo not shown) [Compound 10, Chlorine e6-curcumin Conjugate (10)] | % | 94.15
